Tested on: Escherichia coli TOP10
Measurement Description: shrunken log2 fold change of peptide-encoding DNA abundance (4.5 h post-induction vs induction); higher = less antimicrobial activity (less host growth inhibition)
Test Parameters: time post-induction: 4.5 h; library: site-saturation at positions 5, 18, 19, 20
Quantity: shrunken log2 fold change
Reply with just the number.

{"columns": ["Residue Codes", "Target System", "shrunken log2 fold change"],
 "data": [
  ["RRIRCRPPRLPRPRPRPQAKPRP", "Escherichia coli TOP10", 0.31],
  ["RRIRARPPRLPRPRPRPDSVPRP", "Escherichia coli TOP10", 0.118],
  ["RRIRDRPPRLPRPRPRPVRCPRP", "Escherichia coli TOP10", 0.339],
  ["RRIRNRPPRLPRPRPRPPCYPRP", "Escherichia coli TOP10", -0.41],
  ["RRIRWRPPRLPRPRPRPPHAPRP", "Escherichia coli TOP10", 1.04],
  ["RRIRYRPPRLPRPRPRPGKPPRP", "Escherichia coli TOP10", -0.0225],
  ["RRIRWRPPRLPRPRPRPERLPRP", "Escherichia coli TOP10", 0.277],
  ["RRIRWRPPRLPRPRPRPFCSPRP", "Escherichia coli TOP10", -0.0764]
]}

Request: Recorded shrunken log2 fold change for "RRIRRRPPRLPRPRPRPITRPRP" , please?
Result: 0.0299

Request: Name the reported shrunken log2 fold change value associated with the sequence "RRIRFRPPRLPRPRPRPPNAPRP"
Result: 0.353

Request: Item "RRIRFRPPRLPRPRPRPHHTPRP" has what recorded shrunken log2 fold change?
Result: -0.597

Request: Quick check: shrunken log2 fold change of "RRIRPRPPRLPRPRPRPLSMPRP" ?
Result: -0.33

Request: Endpoint output: shrunken log2 fold change of "RRIRPRPPRLPRPRPRPNLHPRP" . Value?
Result: -0.203

Request: Dear colleague, I am looking for the recorded shrunken log2 fold change of the following sequence: "RRIRCRPPRLPRPRPRPPGHPRP"
Result: 0.422

Request: Name the recorded shrunken log2 fold change for "RRIRWRPPRLPRPRPRPAVLPRP" .
Result: 0.117

Request: Record request: shrunken log2 fold change value, item "RRIRTRPPRLPRPRPRPYQCPRP"
Result: -0.0724

###

Tested on: Escherichia coli TOP10
Measurement Description: shrunken log2 fold change of peptide-encoding DNA abundance (4.5 h post-induction vs induction); higher = less antimicrobial activity (less host growth inhibition)
Test Parameters: time post-induction: 4.5 h; library: site-saturation at positions 5, 18, 19, 20
Decide using shrunken log2 fold change: a value greater than or equal to -0.05 is Condition met, a smaller one is Condition not met.

# example entries with known answers
{"columns": ["Residue Codes", "Group Label"],
 "data": [
  ["RRIRKRPPRLPRPRPRPDTYPRP", "Condition met"],
  ["RRIRFRPPRLPRPRPRPPFDPRP", "Condition met"],
  ["RRIRVRPPRLPRPRPRPCILPRP", "Condition not met"],
  ["RRIRKRPPRLPRPRPRPWWIPRP", "Condition met"],
  ["RRIRQRPPRLPRPRPRPAPAPRP", "Condition met"],
  ["RRIRDRPPRLPRPRPRPIQIPRP", "Condition not met"],
  ["RRIRWRPPRLPRPRPRPNWMPRP", "Condition not met"],
  ["RRIRERPPRLPRPRPRPWYKPRP", "Condition not met"]
]}

Request: Quick check, shrunken log2 fold change >= -0.05? "RRIRERPPRLPRPRPRPNDHPRP"
Result: Condition not met

Request: Hi, just wondering whether "RRIRDRPPRLPRPRPRPCMVPRP" shows shrunken log2 fold change of -0.05 or higher.
Result: Condition met

Request: Please check the record "RRIRFRPPRLPRPRPRPPYFPRP" and state if its shrunken log2 fold change is at or above -0.05.
Result: Condition met

Request: Reported shrunken log2 fold change reaches at least -0.05 for "RRIRMRPPRLPRPRPRPFFRPRP" ?
Result: Condition met

Request: State whether the measured shrunken log2 fold change reaches -0.05, counting equality as reaching it, for "RRIRRRPPRLPRPRPRPKTRPRP"
Result: Condition met

Request: # check: shrunken log2 fold change of "RRIRHRPPRLPRPRPRPKYPPRP" is greater than or equal to -0.05
Result: Condition met

Request: Reported shrunken log2 fold change reaches at least -0.05 for "RRIRSRPPRLPRPRPRPRTMPRP" ?
Result: Condition met

###

Test system: Escherichia coli TOP10
Measurement Description: shrunken log2 fold change of peptide-encoding DNA abundance (4.5 h post-induction vs induction); higher = less antimicrobial activity (less host growth inhibition)
Test Parameters: time post-induction: 4.5 h; library: site-saturation at positions 5, 18, 19, 20
This section presents sequences with their documented shrunken log2 fold change values.
Lab note: record just the number, no unit beside it.

{"columns": ["Residue Codes", "shrunken log2 fold change"],
 "data": [
  ["RRIRSRPPRLPRPRPRPRSAPRP", 0.392],
  ["RRIRVRPPRLPRPRPRPVFRPRP", 0.189],
  ["RRIRCRPPRLPRPRPRPRSRPRP", 0.299],
  ["RRIRIRPPRLPRPRPRPKIWPRP", 0.145],
  ["RRIRFRPPRLPRPRPRPAETPRP", 0.0238],
  ["RRIRRRPPRLPRPRPRPKIGPRP", 0.396],
  ["RRIRTRPPRLPRPRPRPKNTPRP", -0.508],
  ["RRIRPRPPRLPRPRPRPPLMPRP", 0.199],
  ["RRIRGRPPRLPRPRPRPAYHPRP", -0.141],
  ["RRIRLRPPRLPRPRPRPGCGPRP", 0.49]
]}

Request: Quick one: shrunken log2 fold change of "RRIRGRPPRLPRPRPRPFILPRP" ?
Result: -0.196

Request: Which value of shrunken log2 fold change has been reported for "RRIRVRPPRLPRPRPRPNRNPRP" in the records?
Result: -0.238

Request: Quick one: shrunken log2 fold change for "RRIRTRPPRLPRPRPRPTKSPRP" ?
Result: 0.0353

Request: Query (sequence): "RRIRFRPPRLPRPRPRPLCKPRP" ; field requested: shrunken log2 fold change
Result: 0.0214

Request: I'd like to know its shrunken log2 fold change. The sequence in question is "RRIRYRPPRLPRPRPRPNSNPRP"
Result: -1.47

###

Reported shrunken log2 fold change is given for each of the following sequences.
Tested on: Escherichia coli TOP10
Measurement Description: shrunken log2 fold change of peptide-encoding DNA abundance (4.5 h post-induction vs induction); higher = less antimicrobial activity (less host growth inhibition)
Test Parameters: time post-induction: 4.5 h; library: site-saturation at positions 5, 18, 19, 20
# print the numeric value only

{"columns": ["Residue Codes", "shrunken log2 fold change"],
 "data": [
  ["RRIRMRPPRLPRPRPRPKLFPRP", 0.244]
]}

Request: Write down the reported shrunken log2 fold change of "RRIRYRPPRLPRPRPRPQEMPRP" , test system: Escherichia coli TOP10.
Result: -0.0143

Request: Recall the recorded shrunken log2 fold change for "RRIRMRPPRLPRPRPRPALVPRP" with Escherichia coli TOP10 and state it.
Result: 0.327

Request: Form: Entry = "RRIRIRPPRLPRPRPRPDLYPRP" | System = Escherichia coli TOP10 | shrunken log2 fold change = ____
Result: -0.408

Request: Requested read-out shrunken log2 fold change, target or system Escherichia coli TOP10, entry "RRIRKRPPRLPRPRPRPYWVPRP"
Result: -0.306

Request: Param readout= shrunken log2 fold change; system= Escherichia coli TOP10; entry= "RRIRYRPPRLPRPRPRPTLFPRP" ; returns value.
Result: -0.145

Request: Observed shrunken log2 fold change on Escherichia coli TOP10 for "RRIRQRPPRLPRPRPRPQYDPRP" , please.
Result: -0.081

Request: API: value(readout= shrunken log2 fold change, system= Escherichia coli TOP10, query= "RRIRQRPPRLPRPRPRPATMPRP" )
Result: -0.0699

Request: Give the reported shrunken log2 fold change for "RRIRMRPPRLPRPRPRPSEGPRP" (system: Escherichia coli TOP10).
Result: -0.00192

Request: Give Escherichia coli TOP10 shrunken log2 fold change for "RRIRFRPPRLPRPRPRPSWQPRP"
Result: -0.149

Request: Fill in the recorded shrunken log2 fold change for this sequence, with Escherichia coli TOP10 as test system: "RRIRNRPPRLPRPRPRPNWTPRP"
Result: -0.0743

Request: Lab request: please report shrunken log2 fold change under test system Escherichia coli TOP10 for "RRIRWRPPRLPRPRPRPWVNPRP"
Result: -0.183

Request: Form field: shrunken log2 fold change recorded for "RRIRFRPPRLPRPRPRPPPQPRP" with Escherichia coli TOP10 (enter value)
Result: 1.33

Request: # query: shrunken log2 fold change | item "RRIRLRPPRLPRPRPRPFHAPRP" | system: Escherichia coli TOP10;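 note: peptides expressed intracellularly from a pBAD plasmid library in pooled LB shake-flask culture, induced with 0.3% L-arabinose, DNA abundance read by NGS, three biological replicates, DESeq2 with apeglm shrinkage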
Result: -0.219

Request: Item "RRIRPRPPRLPRPRPRPGWQPRP" with Escherichia coli TOP10 - shrunken log2 fold change?
Result: 0.0481

Request: Notebook: pull reported shrunken log2 fold change for Escherichia coli TOP10, entry "RRIRFRPPRLPRPRPRPLMPPRP"
Result: -0.00679

Request: Recall the recorded shrunken log2 fold change for "RRIRKRPPRLPRPRPRPIMSPRP" with Escherichia coli TOP10 and state it.
Result: -0.00757

Request: Request - read-out shrunken log2 fold change | tested on Escherichia coli TOP10 | sequence "RRIRKRPPRLPRPRPRPWWSPRP"
Result: -0.00415

Request: // lookup shrunken log2 fold change | system=Escherichia coli TOP10 | key= "RRIRMRPPRLPRPRPRPRQQPRP"
Result: 0.854

Request: Record "RRIRARPPRLPRPRPRPEMIPRP" : what is its shrunken log2 fold change with Escherichia coli TOP10?
Result: 0.0273

Request: Lab note: need shrunken log2 fold change for "RRIRARPPRLPRPRPRPITPPRP" on Escherichia coli TOP10, anyone have it?
Result: -0.0533

Request: Item "RRIRERPPRLPRPRPRPIAMPRP" with Escherichia coli TOP10 - shrunken log2 fold change?
Result: 0.188
